tested on: OCI-LY-10 cells; assay: BTK (wt) cell proliferation, OCI-LY-10 (CellTiter-Glo, 72 h); type: cell-based; details: OCI-LY-10 cells, 72 h, CellTiter-Glo; read-out: BTK WT OCI-LY-10 GI50;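 note: viable cells quantified via cellular ATP luminescence, proliferation given as percent of DMSO control after subtracting a duplicate plate read at time of dosing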

COMPOUND | GI50 / nM
C=CC(=O)Nc1cc(Nc2nccc(Nc3cc(Cl)c(F)cc3C(C)(O)CC)n2)c(OC)cc1N1CC[C@@H](N(C)C)C1 (single isomer, unassigned) [Compound 77] | 1.23
C=CC(=O)Nc1cc(Nc2ncnc(Nc3cc(Cl)c(F)cc3C(C)(O)CC)n2)c(OC)cc1N1CC[C@@H](N(C)C)C1 (single isomer, unassigned) [Compound 69] | 74.5
C=CC(=O)Nc1cc(Nc2ncnc(Nc3cc(Cl)c(F)cc3C(C)(O)CC)n2)c(OC)cc1N1CC[C@@H](N(C)C)C1 (single isomer, unassigned) [Compound 70] | 22.2
C=CC(=O)Nc1cc(Nc2nccc(Nc3cc(Cl)c(F)cc3C(C)(O)CC)n2)c(OC)cc1N1CC[C@@H](N(C)C)C1 (single isomer, unassigned) [Compound 76] | 2.93
